- testSystem: T1, human SIRPβ1 domain 1 (D1) Fc fusion (human, UniProt O00241 30-148)
- T1 construct: Made in HEK293/T cells with a heterologous signal peptide; also called Human SIRPβ1 D1-Fc; Human SIRPβ1-Fc; not shown: C-terminal human IgG1 Fc
- T1 sequence (O00241 30-148 limits assumed): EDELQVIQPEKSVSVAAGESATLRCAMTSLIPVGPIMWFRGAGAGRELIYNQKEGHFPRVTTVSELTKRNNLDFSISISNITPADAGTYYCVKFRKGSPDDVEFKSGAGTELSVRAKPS
- method: Octet, IgG avid
measuredMetric: Kd (nM)

binder: SB-44 (antibody, V domains shown, IgG) VH: EVQLVESGGGLVQPGGSLRLSCAASGFTVSSNYMSWVRQAPGKGLEWVSVIYSGGDTYYADSVKGRFTISRDNSKNTLYLQMNSLRAEDTAVYYCAREGSSFWSGSAVSYYGMDVWGQGTTVTVSS VL: DIQMTQSPSTLSASVGDRVTITCRASQSIGSWLAWYQQKPGKAPKLLIYKASSLESGVPSRFSGSGSGTEFTLTISSLQPDDFATYYCQEYGSYRTFGGGTKVEIK
unitsOfMeasure: nM
recordedMeasurement: 18.9

binder: SB-48 (antibody, V domains shown, IgG) VH: QVQLVESGGGVVQPGRSLRLSCAASGFTFSSYGMHWVRQAPGKGLEWVAVISYDGSNKYYADSVKGRFTISRDNSKNTLYLQMNSLRAEDTAVYYCARDGTIAAAGWPPEYFQHWGQGTLVTVSS VL: DIQMTQSPSSVSASVGDRVTITCRASQGIDSWLAWYQQKPGKAPKLLIYAASSLQSGVPSRFSGSGSGTDFTLTISSLQPEDFATYYCQQASNFPITFGGGTKVEIK
unitsOfMeasure: nM
recordedMeasurement: 27.7

binder: SB-42 (antibody, V domains shown, IgG) VH: QVQLVQSGAEVKKPGASVKVSCKASGYTFTSYGISWVRQAPGQGLEWMGWISAYNGNTNYAQKLQGRVTMTTDTSTSTAYMELRSLRSDDTAVYYCARGPGHYYVAGMDVWGQGTTVTVSS VL: EIVMTQSPATLSVSPGERATITCRASQSISSYLNWYQQKPGKAPKLLIYSASSLQSGVPSRFSGSGSGTDFTLTISSLQPEDFATYYCQQGDSFPITFGGGTKVEIK
unitsOfMeasure: nM
recordedMeasurement: 12.3
